- assayed target: T1, IL-11 (UniProt P20809 22-199, limits assumed)
- T1 construct: also called IL-11 protein; IL-11 antigen
- T1 sequence (looked up): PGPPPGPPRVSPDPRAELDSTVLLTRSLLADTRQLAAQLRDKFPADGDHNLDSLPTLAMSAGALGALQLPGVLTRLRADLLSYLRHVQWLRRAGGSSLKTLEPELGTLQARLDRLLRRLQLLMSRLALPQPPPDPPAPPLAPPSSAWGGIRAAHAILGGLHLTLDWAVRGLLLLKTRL
- procedure summary: BLI (Fortebio), antibody on AHC sensor, IL-11 3.91-125 nM
# Lookup of reported koff keyed by entry
parameter: koff (s⁻¹)

1. MIL-11 mab-03 (antibody, IgG1, V domains shown, also called 1F12 full-length antibody) VH: QVQLVQSGAEVKKPGASVKVSCKASDYTFTNYWLGWVRQAPGQGLEWMGHIYPGGGYTNYNEKFKGRVTMTRDTSTSTVYMELSSLRSEDTAVYYCARVSSGNDALDFWGQGTLVTVSS VL: EIVLTQSPATLSLSPGERATLSCRASESVDEYGISFMNWFQQKPGQAPRLLIYSASNQASGIPARFSGSGSGTDFTLTISSLEPEDFAVYFCQQSKELPWTFGGGTKLEIK :: 0.000152
2. VH1+VL3 full-length humanized antibody (antibody, human IgG1, kappa, V domains shown, IgG form, IgG1 Fc; also called VH1+VL3 mAb; CPD-2) VH: QVQLVQSGAEVKKPGASVKVSCKASDYTFTNYWLGWVRQAPGQGLEWMGHIYPGGGYTNYNEKFKGRVTMTRDTSTSTVYMELSSLRSEDTAVYYCARVRSGNDALDFWGQGTLVTVSS VL: EIVLTQSPATLSLSPGERATLSCRASESVDEYGISFMNWFQQKPGQAPRLLIYSASNQGSGIPARFSGSGSGTDFTLTISSLEPEDFAVYFCQQSKEVPWTFGGGTKLEIKR :: 0.000609
3. MIL-11 mab-01 (antibody, IgG1, V domains shown, also called 1E12 full-length antibody) VH: QVQLVQSGAEVKKPGASVKVSCKASDYTFTNYWLGWVRQAPGQGLEWMGHIYPGGGYTNYNEKFKGRVTMTRDTSTSTVYMELSSLRSEDTAVYYCARVSSGNDALDLWGQGTLVTVSS VL: EIVLTQSPATLSLSPGERATLSCRASESVDEYGISFMNWFQQKPGQAPRLLIYSGSNEGSGIPARFSGSGSGTDFTLTISSLEPEDFAVYFCNQSKEVPWTFGGGTKLEIK :: 0.000584
4. MIL-11 mab-02 (antibody, IgG1, V domains shown, also called 2E2 full-length antibody) VH: QVQLVQSGAEVKKPGASVKVSCKASDYTFTNYWLGWVRQAPGQGLEWMGHIYPGGGYTNYNEKFKGRVTMTRDTSTSTVYMELSSLRSEDTAVYYCARVSSGNDALDFWGQGTLVTVSS VL: EIVLTQSPATLSLSPGERATLSCRASESVDEYGISFMNWFQQKPGQAPRLLIYSASNQGSGIPARFSGSGSGTDFTLTISSLEPEDFAVYFCQQSKELPWTFGGGTKLEIK :: 0.00013

Each recorded value in this set is attributed to patent US20250002574A1.
